system: E. coli CA-4; experiment: MIC assessment (TREK Sensititre); format: cell-based, Escherichia coli; settings: Escherichia coli, CA4; E. coli CA-4; read-out: MIC
// values below are reported MIC

Some compounds with recorded MIC:
COMPOUND	MEASUREMENT_KIND	REPORTED
CCCCCCCCCC(=O)N[C@@H](Cc1c[nH]c2ccccc12)C(=O)N[C@H](CC(N)=O)C(=O)N[C@@H](CC(=O)O)C(=O)N[C@@H]1C(=O)NCC(=O)N[C@@H](CCCN)C(=O)N[C@@H](CC(=O)O)C(=O)N[C@H](C)C(=O)N[C@@H](CC(=O)O)C(=O)NCC(=O)N[C@H](CO)C(=O)N[C@@H]([C@H](C)CC(=O)O)C(=O)N[C@@H](CC(=O)c2ccccc2N)C(=O)O[C@@H]1C	MIC	> 8 µg/mL
CCC[C@@H]1C[C@@H](C(=O)N[C@@H]([C@H]2O[C@H](SC)[C@H](O)[C@@H](O)[C@H]2O)[C@H](C)Cl)N(C)C1	MIC	> 2 µg/mL
CC(=O)NC[C@H]1CN(c2ccc(N3CCOCC3)c(F)c2)C(=O)O1	MIC	> 8 µg/mL
CC1(C)S[C@@H]2[C@H](NC(=O)[C@H](N)c3ccccc3)C(=O)N2[C@H]1C(=O)O	MIC	> 16 µg/mL
CO[C@H]1/C=C/O[C@@]2(C)Oc3c(C)c(O)c4c(O)c(c(/C=N/N5CCN(C)CC5)c(O)c4c3C2=O)NC(=O)/C(C)=C\C=C\[C@H](C)[C@H](O)[C@@H](C)[C@@H](O)[C@@H](C)[C@H](OC(C)=O)[C@@H]1C	MIC	> 4 µg/mL

# ---- query compound ----
Incoming: I am curious: what MIC value has been reported for COc1c(N2CCNC(C)C2)c(F)cc2c(=O)c(C(=O)O)cn(C3CC3)c12 (centres unmarked) ?
Outgoing: < 1 µg/mL
